# assayed system: Aurora kinase A (AURKA) (Homo sapiens)
# Construct: endogenous in cells; host or cells: HeLa LgBit (AURKA-HiBit KI), CRISPR/Cas9 knock-in at the endogenous AURKA locus
# Sequence (O14965 whole entry): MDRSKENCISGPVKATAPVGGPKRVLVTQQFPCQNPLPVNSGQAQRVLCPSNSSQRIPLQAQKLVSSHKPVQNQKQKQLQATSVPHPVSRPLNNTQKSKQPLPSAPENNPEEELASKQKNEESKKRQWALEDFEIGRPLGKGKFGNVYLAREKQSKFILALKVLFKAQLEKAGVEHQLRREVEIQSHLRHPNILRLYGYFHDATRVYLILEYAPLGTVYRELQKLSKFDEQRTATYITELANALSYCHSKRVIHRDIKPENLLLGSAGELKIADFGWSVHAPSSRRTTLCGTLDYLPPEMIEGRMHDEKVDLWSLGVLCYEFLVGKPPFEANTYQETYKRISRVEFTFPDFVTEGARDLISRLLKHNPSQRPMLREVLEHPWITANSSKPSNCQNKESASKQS
# test method notes: Luciferase assay for AURKA in HeLa LgBit (AURKA-HiBit KI) cell line
# Type: cell-based
# test conditions: 10 nM compound, HeLa LgBit (AURKA-HiBit KI) cells, measured after 12 hours
property: luminescence value (Level)

molecule	property	readout value
O=C1CCC(c2ccc(C#CC3CCN(C4CCN(C(=O)c5ccc(Nc6ncc(F)c(Nc7ccc(C(=O)Nc8ccccc8Cl)cc7)n6)cc5)CC4)CC3)cn2)C(=O)N1 (stereo not drawn)	luminescence value (Level)	D (D is 0.7 to 0.8)
O=C1CC[C@H](Nc2ccc(N3CCN(CCC4CCN(NC(=O)c5ccc(Nc6ncc(F)c(Nc7ccc(C(=O)Nc8ccccc8Cl)cc7)n6)cc5)CC4)CC3)c(F)c2)C(=O)N1	luminescence value (Level)	A (A is <0.3)
O=C1CCC(c2cc(F)c(N3CCN(CCC4CCN(NC(=O)c5ccc(Nc6ncc(F)c(Nc7ccc(NC(=O)c8ccccc8F)cc7)n6)cc5F)CC4)CC3)cc2F)C(=O)N1 (stereo not drawn)	luminescence value (Level)	A (A is <0.3)
O=C1CCC(c2ccc(N3CCN(CCC4CCN(NC(=O)c5ccc(Nc6ncc(F)c(Nc7ccc(C(=O)Nc8ccccc8Cl)cc7)n6)nc5)CC4)CC3)cc2)C(=O)N1 (stereo not drawn)	luminescence value (Level)	D (D is 0.7 to 0.8)
Cc1cc(Nc2nc(Nc3ccc(C(=O)NN4CCC(CCN5CCN(c6ccc(C7CCC(=O)NC7=O)cc6)CC5)CC4)cc3)ncc2F)n[nH]1 (stereo not drawn)	luminescence value (Level)	C (C is 0.5 to 0.7)
O=C1CCC(c2ccc(N3CCC(CCC(=O)N4CCC(NC(=O)c5ccc(Nc6ncc(F)c(Nc7ccc(C(=O)Nc8ccccc8Cl)cc7)n6)cc5)CC4)CC3)cc2)C(=O)N1 (stereo not drawn)	luminescence value (Level)	B (B is 0.3 to 0.5)
O=C1CCC(Nc2ccc(N3CCN(CCC4CCN(NC(=O)c5ccc(Nc6ncc(F)c(Nc7ccc(C(=O)Nc8ccccc8Cl)cc7)n6)cc5)CC4)CC3)c(F)c2)C(=O)N1 (stereo not drawn)	luminescence value (Level)	A (A is <0.3)
CCC(CN1CCN(c2ccc(C3CCC(=O)NC3=O)cc2)CC1)C1CCN(NC(=O)c2ccc(Nc3ncc(F)c(Nc4ccc(C(=O)Nc5ccccc5Cl)cc4)n3)cc2)CC1 (stereo not drawn)	luminescence value (Level)	B (B is 0.3 to 0.5)
C[C@H]1CN(CCC2CCN(NC(=O)c3ccc(Nc4ncc(F)c(Nc5ccc(C(=O)Nc6ccccc6Cl)cc5)n4)cc3)CC2)CCN1c1ccc(C2CCC(=O)NC2=O)cc1 (stereo partly drawn)	luminescence value (Level)	A (A is <0.3)
O=C1CCC(c2ccc(N3CCN(CCC4CCN(C(=O)c5ccc(Nc6ncc(F)c(Nc7ccc(C(=O)Nc8ccccc8Cl)cc7)n6)cc5)CC4)CC3)cc2)C(=O)N1 (stereo not drawn)	luminescence value (Level)	C (C is 0.5 to 0.7)
O=C1CCC(c2ccc(N3CCN(C[C@H]4CC[C@H](NC(=O)c5ccc(Nc6ncc(F)c(Nc7ccc(C(=O)Nc8ccccc8Cl)cc7)n6)cc5)CC4)CC3)cc2)C(=O)N1 (stereo partly drawn)	luminescence value (Level)	B (B is 0.3 to 0.5)
O=C1CCC(c2ccc(N3CCN(CCC4CCN(NC(=O)c5ccc(Nc6ncc(F)c(Nc7ccccc7)n6)cc5)CC4)CC3)cc2)C(=O)N1 (stereo not drawn)	luminescence value (Level)	A (A is <0.3)
O=C1CCC(Nc2ccc(N3CC(N4CCc5cc(NC(=O)c6ccc(Nc7ncc(F)c(Nc8ccc(C(=O)Nc9ccccc9Cl)cc8)n7)cc6)ccc5C4)C3)cc2)C(=O)N1 (stereo not drawn)	luminescence value (Level)	B (B is 0.3 to 0.5)
Cn1c(=O)n(C2CCC(=O)NC2=O)c2ccc(N3CCN(CCC4CCN(NC(=O)c5ccc(Nc6ncc(F)c(Nc7ccc(C(=O)Nc8ccccc8Cl)cc7)n6)cc5)CC4)CC3)cc21 (stereo not drawn)	luminescence value (Level)	A (A is <0.3)
O=C1CCC(c2ccc(C#CC3CCN(C4CCN(C(=O)Cc5ccc(Nc6ncc(F)c(Nc7ccc(C(=O)Nc8ccccc8Cl)cc7)n6)cc5)CC4)CC3)cc2)C(=O)N1 (stereo not drawn)	luminescence value (Level)	D (D is 0.7 to 0.8)
O=C1CC[C@H](Nc2ccc(N3CCN(CCC4CCN(NC(=O)c5ccc(Nc6ncc(F)c(Nc7ccc(C(=O)Nc8ccccc8Cl)cc7)n6)cc5)CC4)CC3)cc2F)C(=O)N1	luminescence value (Level)	B (B is 0.3 to 0.5)
O=C1CCC(c2ccc(C#CC3CCN(C4CCN(C(=O)c5ccc(Nc6ncc(F)c(Nc7ccc(C(=O)Nc8ccccc8Cl)cc7)n6)cc5)CC4)CC3)cc2)C(=O)N1 (stereo not drawn)	luminescence value (Level)	D (D is 0.7 to 0.8)
O=C1CCC(Nc2ccc(N3CC(CN4CC5CN(C(=O)c6ccc(Nc7ncc(F)c(Nc8ccc(C(=O)Nc9ccccc9Cl)cc8)n7)cc6)CC5C4)C3)cc2)C(=O)N1 (stereo not drawn)	luminescence value (Level)	B (B is 0.3 to 0.5)
O=C1CCC(c2ccc(N3CCN(CCC4CCN(NC(=O)c5ccc(Nc6ncc(F)c(Nc7ccccc7Cl)n6)cc5)CC4)CC3)cc2)C(=O)N1 (stereo not drawn)	luminescence value (Level)	A (A is <0.3)
O=C1CCC(c2ccc(N3CCN(CCC4CCN(NC(=O)c5ccc(Nc6ncc(F)c(Nc7ccc(C(=O)Nc8ccccc8Cl)cc7)n6)cc5)CC4)CC3)c(F)c2)C(=O)N1 (stereo not drawn)	luminescence value (Level)	A (A is <0.3)
O=C1CCC(Nc2ccc(N3CC4(CN(CC5CCN(C(=O)c6ccc(Nc7ncc(F)c(Nc8ccc(C(=O)Nc9ccccc9Cl)cc8)n7)cc6)CC5)C4)C3)cc2)C(=O)N1 (stereo not drawn)	luminescence value (Level)	B (B is 0.3 to 0.5)

Every entry's value here was drawn from patent US20260226071A1.
